Reference source for all entries: PubChem BioAssay

# Lookup of reported composite z-score keyed by entry
# assayComment: small-molecule microarray binders of probe aDKK1, primary screen, biochemical, biotinylated probe, 635/667 nm fluorescence (AID 1099);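 also: score merges 667nm spot fluorescence with signal to noise across triplicate slides; reference of the scale not given here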
# assayConditions: higher = more signal
recordedEndpoint: composite z-score

{"compound": "COc1ccc(CCNC(=O)[C@@H]2c3ccccc3C(=O)N(C3Cc4ccccc4C3)[C@H]2c2ccc(CO)cc2)cc1", "quantitativeReadout": -0.124}
{"compound": "O=C1NC(=O)C2C1C=CC(C(O)Cc1ccccc1)N2Nc1ccc(Cl)cc1Cl (centres undefined)", "quantitativeReadout": 0.931}
{"compound": "COc1ccc(CCNC(=O)[C@@]2(Sc3ccc(C)cc3)CC(=O)N(C3CCCCC3)[C@@H]2c2ccc(CO)cc2I)cc1", "quantitativeReadout": -0.0662}
{"compound": "[N-]=[N+]=Nc1ccccc1C[C@]1(C(N)=O)N=C(c2ccc(OCCCO)cc2)O[C@H]1c1ccccc1", "quantitativeReadout": 0.0609}
{"compound": "COc1ccc([Si](C)(C)[C@@H]2[C@@H](CC(=O)N3Cc4ccccc4C[C@H]3CO)O[C@]3(C(=O)N(C)c4c(Br)cc(C)cc43)[C@H]2C)cc1", "quantitativeReadout": -0.0347}
{"compound": "C=CCOC(=O)[C@H]1[C@@H]2C(=O)O[C@@H](c3ccccc3)[C@@H](c3ccccc3)N2[C@@H](c2ccc(OCCOC(=O)[C@@H]3C[C@@H]4C(=O)N[C@@H](CCCC[N+](C)(C)C)C(=O)N4[C@@H]3c3ccc(O)cc3)cc2)[C@]12C(=O)Nc1ccccc12", "quantitativeReadout": 0.415}
{"compound": "COC(=O)C=C(CC(O)c1cccc(Cl)c1)OC (centres undefined)", "quantitativeReadout": 1.5}
{"compound": "CCOC(=O)C[C@H]1[C@H](OC(=O)Cc2ccc3c(c2)OCO3)[C@@H](NC(=O)c2ccc(-c3ccccc3)cc2)c2cc(OCCCO)ccc2N1C(=O)c1ccc2ccccc2n1", "quantitativeReadout": -0.319}
{"compound": "CC1CC/C=C\\[C@H]2OC34C=CCN(C(C)(C)C)C(=O)[C@H]3N(CCCCCCO)C(=O)[C@@H]4C2C(=O)O1 (some centres undefined)", "quantitativeReadout": -0.0908}
{"compound": "O=C1c2ccccc2[C@@]2(Cc3ccccc3N(CCN3CCOCC3)C2=O)[C@H](c2ccc(CO)cc2)N1Cc1ccccc1", "quantitativeReadout": -0.0074}
{"compound": "CN1C(=O)C2C=CC(C(O)c3cccs3)N(Nc3ccccc3)C2C1=O (centres undefined)", "quantitativeReadout": 0.168}
{"compound": "CCOC(=O)C[C@H]1[C@H](OC(=O)Cc2ccc3c(c2)OCO3)[C@@H](NC(=O)c2ccc(-c3ccccc3)cc2)c2cc(OCCCO)ccc2N1C(=O)Cc1ccc(OC)cc1", "quantitativeReadout": 0.55}
{"compound": "C=C(C)C1C(=C)CN([C@H](CO)c2ccccc2)C1=O (some centres undefined)", "quantitativeReadout": -0.172}
{"compound": "Cc1ccc(S[C@]2(C(=O)NC3CC3)CC(=O)N(C3Cc4ccccc4C3)[C@@H]2c2ccc(CO)cc2)cc1", "quantitativeReadout": 0.245}
{"compound": "[N-]=[N+]=NCc1ccccc1[C@@H]1OC(c2ccc(OCCCO)cc2)=N[C@]1(CCS(=O)(=O)c1ccccc1)C(=O)NCc1ccccc1", "quantitativeReadout": 1.14}
{"compound": "CN(C)CCCCCCNC(=O)[C@@H]1C[C@@H]2C(=O)N[C@@H](CCCCN)C(=O)N2[C@@H]1c1cccc(OCCO)c1", "quantitativeReadout": 2.69}
{"compound": "CCCCCC1=C2CNC(CCC)(C(=O)OC)C=C2C(C)C1=O (centres undefined)", "quantitativeReadout": 0.719}
{"compound": "OC([C@@H]1CC(c2ccccc2)=NO1)[C@H]1CC(c2ccccc2)=NO1 (some centres undefined)", "quantitativeReadout": -0.29}
{"compound": "COCCCNC(=O)[C@@]1(Cc2ccccc2)N=C(c2ccc(OCCCO)cc2)O[C@H]1c1ccccc1", "quantitativeReadout": 1.22}
{"compound": "C=C(COC)/C(=C/C[C@@H](OC(C)=O)c1ccc(OCCO)cc1)c1cc(C(=O)OC)ccc1OC", "quantitativeReadout": 0.455}
{"compound": "COc1ccc([C@H]2C[C@H]3C(Br)=C[C@@H]2C(=O)[C@]32CO2)cc1", "quantitativeReadout": -0.308}
{"compound": "O=C1[C@H]2C=C(Br)[C@H](C[C@@H]2OCCCCO)[C@@]12CO2", "quantitativeReadout": -0.257}
{"compound": "COc1ccc([Si](C)(C)[C@H]2[C@H](CCO)O[C@@]3(C(=O)N(C)c4c(Br)cc(C)cc43)[C@@H]2C)cc1", "quantitativeReadout": -0.0044}
{"compound": "C=CCNC(=O)[C@H]1[C@@H]2C(=O)O[C@@H](c3ccccc3)[C@@H](c3ccccc3)N2[C@@H](c2ccc(OCCO)cc2)[C@]12C(=O)N(C(=O)OCCOC)c1ccccc12", "quantitativeReadout": 0.192}
{"compound": "CC(=O)NCCCC[C@@H]1NC(=O)[C@@H]2C[C@H](C(=O)NCCCCN(C)C)[C@H](c3cccc(OCCO)c3)N2C1=O", "quantitativeReadout": -0.0978}
{"compound": "C=CCOC(=O)[C@H]1[C@@H]2C(=O)O[C@@H](c3ccccc3)[C@@H](c3ccccc3)N2[C@@H](c2ccc(OCCOC(=O)[C@@H]3C[C@@H]4C(=O)N[C@@H](CCCCN(C)C)C(=O)N4[C@@H]3c3ccc(O)cc3)cc2)[C@]12C(=O)Nc1ccc(I)cc12", "quantitativeReadout": 0.26}
{"compound": "CC(C)(C)OC(=O)CC[C@]1(C(=O)O)N=C(c2ccc(OCCCO)cc2)O[C@H]1c1ccccc1N=[N+]=[N-]", "quantitativeReadout": 1.75}
{"compound": "O=C(NCc1ccc(F)cc1)[C@H]1C[C@H]2C(=O)N[C@@H](Cc3ccccc3)C(=O)N2[C@H]1c1ccc(O)cc1", "quantitativeReadout": -0.103}
{"compound": "Cc1ccc(C(C)CC(O)C2C=CC3C(=O)N(c4ccccc4)C(=O)C3N2Nc2ccc([N+](=O)[O-])cc2)o1 (centres undefined)", "quantitativeReadout": -0.199}
